testSystem: Epidermal growth factor receptor [L858R,T790M,C797S] (Homo sapiens, UniProt P00533, C797S/L858R/T790M)
Sequence (P00533 25-1210 T790M/C797S/L858R limits assumed): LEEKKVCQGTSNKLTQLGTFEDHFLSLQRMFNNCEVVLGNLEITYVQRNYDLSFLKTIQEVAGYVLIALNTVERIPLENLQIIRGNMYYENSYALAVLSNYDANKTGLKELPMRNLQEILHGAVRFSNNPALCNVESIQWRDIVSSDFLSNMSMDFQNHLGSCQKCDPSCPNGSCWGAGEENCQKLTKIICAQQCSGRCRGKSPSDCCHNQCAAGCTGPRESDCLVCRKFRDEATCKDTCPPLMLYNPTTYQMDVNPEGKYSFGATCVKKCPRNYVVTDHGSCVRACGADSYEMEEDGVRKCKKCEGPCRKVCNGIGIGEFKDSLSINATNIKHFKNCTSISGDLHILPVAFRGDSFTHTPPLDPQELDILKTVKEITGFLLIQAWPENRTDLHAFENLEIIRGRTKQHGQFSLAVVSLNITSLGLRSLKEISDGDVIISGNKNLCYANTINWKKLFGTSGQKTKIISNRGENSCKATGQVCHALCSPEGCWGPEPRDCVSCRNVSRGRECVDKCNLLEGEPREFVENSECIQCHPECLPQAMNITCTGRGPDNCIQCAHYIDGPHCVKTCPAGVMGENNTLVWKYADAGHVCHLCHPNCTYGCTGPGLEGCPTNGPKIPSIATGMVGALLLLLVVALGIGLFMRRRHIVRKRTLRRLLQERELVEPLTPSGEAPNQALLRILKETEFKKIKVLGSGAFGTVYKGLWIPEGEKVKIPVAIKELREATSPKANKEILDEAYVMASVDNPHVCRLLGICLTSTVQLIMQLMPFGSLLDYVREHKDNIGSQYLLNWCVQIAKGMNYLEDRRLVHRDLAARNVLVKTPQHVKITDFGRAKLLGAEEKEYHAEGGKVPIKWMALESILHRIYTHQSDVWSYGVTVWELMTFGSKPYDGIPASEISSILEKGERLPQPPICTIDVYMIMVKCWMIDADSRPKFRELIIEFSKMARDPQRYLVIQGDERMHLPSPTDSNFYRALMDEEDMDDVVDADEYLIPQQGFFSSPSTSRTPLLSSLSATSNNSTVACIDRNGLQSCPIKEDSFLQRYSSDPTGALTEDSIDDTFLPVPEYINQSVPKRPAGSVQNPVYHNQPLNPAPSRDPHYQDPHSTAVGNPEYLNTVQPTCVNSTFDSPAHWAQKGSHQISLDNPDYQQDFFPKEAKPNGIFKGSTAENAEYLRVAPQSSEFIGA
assayRemarks: Biochemical Assay
pIC50: −log10 of the molar value.
valueKind: pIC50

The recorded pIC50 for entry CN1CC[C@@H](NC(=O)c2ccc3c(c2)OCCOCc2c(cnn2C)-c2cc4c(n[nH]c4cn2)/C=C/3)C1 equals 7.76

# pIC50 (compound: CN(C)CCNC(=O)c1ccc2c(c1)OCCCOc1c(cnn1C)-c1cc3c(n[nH]c3cn1)/C=C/2 ) is 8.08

The reported value for CN1CCC(NC(=O)c2ccc3c(c2)OCCCOc2c(cnn2C)-c2cc4c(n[nH]c4cn2)/C=C/3)CC1 in terms of pIC50 is 7.97

(1) COC(=O)c1ccc2c(c1)OCCCOc1c(cnn1C)-c1cc3c(n[nH]c3cn1)/C=C/2
(2) CN1CC(NC(=O)c2ccc3c(c2)OCCCOc2c(cnn2C)-c2cc4c(n[nH]c4cn2)/C=C/3)C1
(3) Cc1ccc2c(n1)/C=C/c1n[nH]c3cnc(cc13)-c1cnn(C)c1C(C)OCCO2 (configuration not stated)
INPUT: Parameters: sort_field (pIC50), sort_dir (desc). Provide the ranking by listing each label in its place in the requested order.
OUTPUT: 2, 3, 1

(a) CN(C)CCCNC(=O)c1ccc2c(c1)/C=C/c1n[nH]c3cnc(cc13)-c1cnn(C)c1COCCO2
(b) Cn1ncc2c1OCCCOc1cc(C(=O)O)ccc1/C=C/c1n[nH]c3cnc-2cc13
(c) COC(=O)c1ccc2c(c1)/C=C/c1n[nH]c3cnc(cc13)-c1cnn(C)c1OCCCO2
(d) Cn1ncc2c1OCCCOc1ccc(C(=O)N3CCCC3)cc1/C=C/c1n[nH]c3cnc-2cc13
(e) CN1CCC(CNC(=O)c2ccc3c(c2)/C=C/c2n[nH]c4cnc(cc24)-c2cnn(C)c2OCCCO3)CC1
INPUT: Provide the items ranked by increasing pIC50. Would you mind listing the labels in the order requested?
OUTPUT: b, d, c, a, e
